# merged literature set: pKi with Serine/threonine-protein kinase pim-3 (Homo sapiens)
Scale note: pKi = -log10(concentration in M).

Please give the measured pKi for this compound: Cc1nc(C(=O)Nc2cnccc2N2CCC[C@H](N)C2)c(N)s1 8.02

Please give the measured pKi for this compound: Cn1ncc(NC(=O)c2nc(-c3ccccc3F)sc2N)c1N1CCC[C@H](N)C1 9.24

Please give the measured pKi for this compound: Cn1cc(-c2cc3c(cn2)cnn3-c2cccc(N3CC4(CCCCN4)C3)n2)cn1 8.92

Please give the measured pKi for this compound: c1cc(N2CCCNCC2)nc(-n2ncc3cnc(-c4cnn(C5CCC5)c4)cc32)c1 9.59

Please give the measured pKi for this compound: Nc1sc(Cc2ccccc2)nc1C(=O)Nc1cnccc1N1CCC[C@H](NC(=O)C(F)(F)F)C1 7.04

---

# merged literature set: pKi with Serine/threonine-protein kinase pim-3 (Homo sapiens, UniProt Q86V86)
Scale note: pKi = -log10(concentration in M).

Solved cases below.
Write down the reported pKi of CCn1ncc(NC(=O)c2nc(-c3ccccc3F)sc2N)c1N1CCC[C@@H](N)CC1 , test system: Serine/threonine-protein kinase pim-3 (Homo sapiens, UniProt Q86V86). 7.62

Write down the reported pKi of CCn1cc(-c2cc3c(cn2)cnn3-c2cccc(NC3CCCCNC3)n2)cn1 (centres unmarked) , test system: Serine/threonine-protein kinase pim-3 (Homo sapiens, UniProt Q86V86). 8.79

Write down the reported pKi of Cc1cncc(-c2cc3c(cn2)cnn3-c2cccc(N3CCC[C@@H](O)C3)n2)n1 , test system: Serine/threonine-protein kinase pim-3 (Homo sapiens, UniProt Q86V86). 9.40

Others:
Write down the reported pKi of Cc1cncc(-c2cc3c(cn2)cnn3-c2cc(C3COC3)cc(N3CCC[C@H](N)C3)n2)n1 , test system: Serine/threonine-protein kinase pim-3 (Homo sapiens, UniProt Q86V86). 9.13

Write down the reported pKi of Cc1cncc(-c2cc3c(cn2)cnn3-c2cccc(N3CCCNCC3)n2)c1 , test system: Serine/threonine-protein kinase pim-3 (Homo sapiens, UniProt Q86V86). 10.11

Write down the reported pKi of Cn1cc(-c2cc3c(cn2)cnn3-c2cccc(N3CC(CN)C3)n2)cn1 , test system: Serine/threonine-protein kinase pim-3 (Homo sapiens, UniProt Q86V86). 8.69

Write down the reported pKi of CCc1cncc(-c2cc3c(cn2)cnn3-c2cccc(N3CCNC[C@H](O)C3)n2)c1 (single isomer, unassigned) , test system: Serine/threonine-protein kinase pim-3 (Homo sapiens, UniProt Q86V86). 9.52

Write down the reported pKi of Nc1sc(-c2cn[nH]c2)nc1C(=O)Nc1cnccc1N1CCC[C@H](N)C1 , test system: Serine/threonine-protein kinase pim-3 (Homo sapiens, UniProt Q86V86). 10.10

---

# merged literature set: Ki with Serine/threonine-protein kinase pim-3 (Homo sapiens)
The figure you give is taken to be in nM; do not add the unit.

Solved cases below.
Write down the reported Ki of Nc1sc(-c2c(F)cccc2F)nc1C(=O)Nc1cn[nH]c1N1CCC[C@H](N)C1 , test system: Serine/threonine-protein kinase pim-3 (Homo sapiens). 4.89

Write down the reported Ki of O[C@H]1CCC[C@@H]1Nc1cncc(-c2cc3c(cn2)cnn3-c2cccc(N3CCNCC3)n2)n1 , test system: Serine/threonine-protein kinase pim-3 (Homo sapiens). 0.182

Write down the reported Ki of Nc1sc(C2CCCNC2)nc1C(=O)Nc1cnccc1N1CCCC(N)C1 (stereo not shown) , test system: Serine/threonine-protein kinase pim-3 (Homo sapiens). 47.3

Note: attention shifts to another entry.
Write down the reported Ki of Cn1cc(-c2cc3c(cn2)cnn3-c2cccc(N3CC(N)C3)n2)cn1 , test system: Serine/threonine-protein kinase pim-3 (Homo sapiens). 0.507
